System: PPARg:RXRa 270nM:90nM, anti-RXR (NR concentration 270 nM, RXRa partner concentration 90 nM)
experiment: PBM binding z-score (relative to random genomic background probes); higher = stronger binding; sequences stand for … in GC…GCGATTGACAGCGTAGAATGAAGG
Binning rule for recorded PBM binding z-score: c1 (below 3), c2 (3 to below 6), c3 (6 or more)

{"sequence.record": "CCTACTGGGCCATTCAGAGGGCATTGATCATATG", "discrete.label": "c1"}
{"sequence.record": "ATATGTAGTTTATCGGGTCATTCAGTTTGCGCAT", "discrete.label": "c1"}
{"sequence.record": "CCTACTCGGCCAAAAAGGTCATTGATGCCGATAA", "discrete.label": "c2"}
{"sequence.record": "ACTTAAGGGTCAACGAGGTTATAGCACGCGTATA", "discrete.label": "c3"}
{"sequence.record": "ACTAGTTGGTCAGCTGAGGTCACACCCAATTCGG", "discrete.label": "c1"}
{"sequence.record": "TATAAAGGGTCAAAGGCCAGAGTACGAATGTCGA", "discrete.label": "c3"}
{"sequence.record": "CCTTACGGGTCACGAGGTCATAGCACGACGAGCG", "discrete.label": "c3"}
{"sequence.record": "TAGCCGAGGTCATTCAGGGGCCAGTATAGAAAGC", "discrete.label": "c2"}

In plain terms, what class is CCTACTGGACCAAGGTCATTGATCAGTCAAAGCA ?
c1

In plain terms, what class is GCTTACGGGTCCAAGGTTATAGCATGAATAGAAT ?
c1

In plain terms, what class is GCTGCTAGGTCAACTGATGGTCACCTAAAGCTCG ?
c2

====

Tested on: LXRa:RXRa (NR concentration 270 nM, RXRa partner concentration 90 nM)
experiment: PBM binding z-score (relative to random genomic background probes); higher = stronger binding; sequences stand for … in GC…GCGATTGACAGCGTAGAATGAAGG
attribute.measured: PBM binding z-score
Please give the numeric answer without any surrounding text.

{"sequence.record": "CGAACTAGGTCGCCAGGACAGTGAAGAGGTTGGA", "PBM binding z-score": 0.158}

PBM binding z-score measured on AATACGGGGTCACTAGGCCAGAGTAGGTACGAAT = 6.53

PBM binding z-score measured on CCTGCGAGGTCATGGTCAGCTAATCTACAGTATG = 5.55

PBM binding z-score measured on AGTCAAACTTCAGGACGAGGTAACGTAAAGCACG = -0.137

PBM binding z-score measured on TGTCAACGTTCAAAGGTAACGTAAGTATCCACAC = 0.794

PBM binding z-score measured on TATACAGGGTCAAAGGCCAAAGTACGAATGTCGA = 6.59

====

Test system: PPARg homodimer (NR concentration 180 nM)
experiment: PBM binding z-score (relative to random genomic background probes); higher = stronger binding; sequences stand for … in GC…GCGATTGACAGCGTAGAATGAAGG
attribute.measured: PBM binding z-score

For orientation, consider the following solved cases.
{"sequence.record": "CAAACGAGGTCAAGGTCAAAGTCGGTTTGTGCCA", "PBM binding z-score": 4.15}
{"sequence.record": "CTATGTAGGTTAAGGGAGTCATTCAGTTTGAAAG", "PBM binding z-score": 0.863}

Now for the sequence whose PBM binding z-score we want.
Item: CCTTACGGGTTACTCCAGGTTATAGCATCGGAGT | System: PPARg homodimer (NR concentration 180 nM) | PBM binding z-score: 0.398

====

Test system: VDR:RXRa (NR concentration 270 nM, RXRa partner concentration 90 nM)
experiment: PBM binding z-score (relative to random genomic background probes); higher = stronger binding; sequences stand for … in GC…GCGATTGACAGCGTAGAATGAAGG
PBM binding z-score for assorted sequences
Please give the numeric answer without any surrounding text.

Item: AGAATGAGGTTACTAAAGATCAGGGAAACGCTTG | System: VDR:RXRa (NR concentration 270 nM, RXRa partner concentration 90 nM) | PBM binding z-score: 0.79

====

Test system: PPARg:RXRa 90nM:30nM, anti-RXR (NR concentration 90 nM, RXRa partner concentration 30 nM)
experiment: PBM binding z-score (relative to random genomic background probes); higher = stronger binding; sequences stand for … in GC…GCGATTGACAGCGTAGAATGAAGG
attribute.measured: PBM binding z-score
Please give the numeric answer without any surrounding text.

{"sequence.record": "CGTCAAAGGTCATAGGAGGTCAGTGAAGACAGAT", "attribute.measured": "PBM binding z-score", "observed": 7.99}
{"sequence.record": "AGTCAAAGTTCATCTAGGTCACGTAAGATATGCT", "attribute.measured": "PBM binding z-score", "observed": 6.61}
{"sequence.record": "AGTCAAAGTTCATCTAGGTAACATAAGATATGCT", "attribute.measured": "PBM binding z-score", "observed": 5.76}
{"sequence.record": "AGAATGAGGTTAAGTTCAGGGAAACAGAATACAT", "attribute.measured": "PBM binding z-score", "observed": 3.51}
{"sequence.record": "CCTTACGGGTAACGAGGTTATAGCACGACGAGCG", "attribute.measured": "PBM binding z-score", "observed": 0.641}

PBM binding z-score measured on CCTACTGGGCCAAAAAGGTCATTGATGCCGATAA = 3.38

PBM binding z-score measured on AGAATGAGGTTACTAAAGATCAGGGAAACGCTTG = 1.07

PBM binding z-score measured on CCTTAGGGGTCACTCCAGGTTATAGCATCGGAGT = 6.51

PBM binding z-score measured on CGTCCAAGGTCAAAGGTCATTGAAGAGATGACGG = 11.6

PBM binding z-score measured on CGAACTAGGTCATTGACAGGACAGTGGATAGTAA = 5.3

PBM binding z-score measured on CAAACTAGGTCACCGAAAGGTCAAAGTCCGCATG = 8.62

PBM binding z-score measured on CAAACCAGGTCAAGAGGTCAAAGTCCGCTTCCCG = 7.2

PBM binding z-score measured on ATATGTAGGTTGGGGTCATTCAGAAAGTAGGGAA = 5.4

PBM binding z-score measured on ACTCGGAGGTCAAAGGTCAGAGCTACGCCAGTGA = 10.2

PBM binding z-score measured on GATATAGGGTCAGCTAGAGGCCAGAGTATGGAAA = 2.44

PBM binding z-score measured on CGTCAAAGTTCAAGGTCACGTAACAGAAAGCAGC = 5.84

PBM binding z-score measured on CCTCGGAGGACAACAGGAGGTCATAGCTGCCAGA = 0.459

====

Test system: RARb homodimer (NR concentration 270 nM)
experiment: PBM binding z-score (relative to random genomic background probes); higher = stronger binding; sequences stand for … in GC…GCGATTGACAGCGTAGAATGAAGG
Binning rule for recorded PBM binding z-score: lowest (below 3), middle (3 to below 4), highest (4 or more)

Here's what some known entries look like.
{"sequence.record": "CCTAGTTGGTCAAGGTCACATACGCTATAGGTAC", "discrete.label": "highest"}
{"sequence.record": "CCTACTGGGCCAAAGAGGTCATTGATGCCGATAA", "discrete.label": "middle"}
{"sequence.record": "TGTCAATGTTCAAAGGTAACGTAAGTATCCACAC", "discrete.label": "lowest"}

Note: attention shifts to another entry.
In plain terms, what class is AGCGAAAGGTCGAGGTGAGTATAGAGAAAGGGAA ?
lowest

====

Tested on: RXRa DBDmut IVT, anti-RXR (DBD mutation: RXRa K156A/R161A, NR concentration 90 nM)
experiment: PBM binding z-score (relative to random genomic background probes); higher = stronger binding; sequences stand for … in GC…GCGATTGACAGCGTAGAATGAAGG
Param threshold (2) applies to PBM binding z-score; output true (1) when value >= threshold, false (0) when value < threshold.

Here's what some known entries look like.
{"sequence.record": "GATACAGGGTCAGCTACAGGCCAGAGTATGGAAA", "discrete.label": "false (0)"}
{"sequence.record": "CGAACAAGGTCACCAGGACAGTGAAGAGGTTGGA", "discrete.label": "true (1)"}

Tell me whether PBM binding z-score is at least 2 here: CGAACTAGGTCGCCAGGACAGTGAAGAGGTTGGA
false (0)

Tell me whether PBM binding z-score is at least 2 here: ATCGAAAGGTCGAAGGTGAGCATACCCACCCGAA
false (0)

Tell me whether PBM binding z-score is at least 2 here: CCTACGGGGCCACGAAAGGTCATTGATTCAGTGA
false (0)

Tell me whether PBM binding z-score is at least 2 here: CGTCAAAGTTCAACTGAGGTAACGTAAAGCACGC
true (1)
